Values were extracted from PubChem BioAssay AID1159580.

assay_explanation: chemical genetic growth profiling, strain panel (AID 1159580);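 also: tested at 20 µM; growth read once vehicle control cultures reached saturation at 30 °C; 1 = growth at the plate median or of vehicle wells; lower values mean less growth of the strain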
measurement_context: S. cerevisiae deletion strains, growth OD, locus YPL078C, strain atp4
Screen size: about 5,500 compounds; about 2,000 (36%) were called active. About 18% were inconclusive and are not listed. Rule as the data show it: active = normalized growth mostly below about 0.91 (no sharp cut-off); inconclusive = no clear call, values can overlap the other calls; inactive = mostly above about 0.92. The list shows a part of the results.
Tick one outcome: 1.0 (active), 0.0 (inactive)

Answer briefly: the call reported for "COc1ccc([C@@H](C)C(=O)c2ccc(O)cc2O)cc1" in this assay. 0.0

Given "CNC(=O)N(C)c1nnc(C(C)(C)C)s1" , state the outcome it received in this test. 0.0

# outcome recorded in this test, key = "O=c1c(O)c(-c2ccccc2)oc2cccc(O)c12" 1.0

I'd appreciate the recorded outcome for "O=C(O)CCC(=O)OC[C@@H](NC(=O)C(Cl)Cl)[C@H](O)c1ccc([N+](=O)[O-])cc1" from this test. 0.0

In this assay, the call recorded for CC(=O)OC1CCC2(O)CC1(C)CCC1C2CC1(C)C (configuration not stated) was what? 0.0

How did this test come out for "CC(=O)Nc1c(I)cc(I)c(C(=O)O)c1I" ? 0.0

So what was the verdict on "COc1ccc(CC(=O)c2ccc(O)cc2O)cc1" in this test? 0.0

Recorded test call requested for CNC(C)[C@@H]1CC[C@@H](N)[C@@H](OC2[C@@H](N)C[C@@H](N)[C@H](OC3OC[C@](C)(O)[C@H](NC)[C@H]3O)[C@H]2O)O1 (some centres not stated) 0.0

Any idea what this test logged for "C=CC[C@@H]1/C=C(\C)C[C@H](C)C[C@H](OC)[C@H]2O[C@@](O)(C(=O)C(=O)N3CCCC[C@H]3C(=O)O[C@H](/C(C)=C/[C@@H]3CC[C@@H](O)[C@H](OC)C3)[C@H](C)[C@@H](O)CC1=O)[C@H](C)C[C@@H]2OC" ? 0.0

Please indicate how the test categorized CC(C)CCCC(C)N (configuration not stated) . 0.0

Fill in: this test's call for "CC(=O)c1ccc[nH]1" is ___ 0.0

Given CC(C)c1cc2c(c(O)c1O)[C@@]1(C(=O)O)CCCC(C)(C)C1CC2 (some centres not stated) , state the outcome it received in this test. 0.0

Record request — test call for "C/C(=C\CO)CC[C@H](C)CCC[C@H](C)CCCC(C)C" 1.0

Call for entry CC(=O)Oc1c(C)c(C)c2c(c1C)CCC(C)(CCCC(C)CCCC(C)CCCC(C)C)O2 (configuration not stated) : 0.0

In this assay, the call recorded for "COc1cc(O)c2c(c1)C(=O)c1cc(C)cc(O)c1C2=O" was what? 0.0

Can you look up the reported call for "CC(=O)c1c(O)cc(O)cc1O" for me? 0.0

I'd appreciate the recorded outcome for Oc1cc2c(cc1O)C(c1ccccc1)CNCC2 (configuration not stated) from this test. 0.0

What outcome does the record of this test show for "CCCCCCCCCCCCCCCC(=O)OC[C@H](NC(=O)C(Cl)Cl)[C@H](O)c1ccc([N+](=O)[O-])cc1" ? 0.0

# fetch the recorded call for "O=c1c(O)cccc2cc(O)c(O)c(O)c12" here 1.0

Given CC(=CC1CCC(C)C2C1=C(C)CC2O)C(=O)O (configuration not stated) , state the outcome it received in this test. 0.0

Per the assay record, what outcome was assigned to "O=C(CCc1ccc(O)cc1)c1c(O)cc(O)cc1O" ? 0.0

Short answer needed: outcome of this test for "O=C1C=CC(=O)c2c(O)c(Cl)c(Cl)c(O)c21" ? 1.0
